All figures here come from paper PMC12779259.

Test system: THP-1 monocytic cells
Assay: Toxicity testing on THP-1 monocyte cells
Format: cell-based, human
Conditions: read-out: IC90 (THP1); 90% inhibition relative to untreated controls; no Cu; 24 h
Value Type: IC90

Param item = CNC(=S)NN=CC=NNC(=S)NC [GTSM] ; retrieve measured IC90. > 10 µM
